Tested on: Saccharomyces cerevisiae BY4741 SeMeCo community
Method notes: z-score of subpopulation abundance vs DMSO median, subpopulation auxotrophic for HM; higher = larger share of this subpopulation than in DMSO controls
Assay setup: 10 µM; 24 h; SM minimal medium; subpopulation (auxotrophy): HM
Experimental endpoint: z-score of subpopulation abundance
API note: the answer field is a bare number with no unit suffix.

Here's what some known entries look like.
> print(dat)
                                   compound  quantitative.readout
1  CCCCCCCCc1ccc(CCC(N)(CO)CO)cc1 [Fingolimod]                 -1.86
2  O=C1C(=O)c2ccccc2C(O)=C1C1CCC(c2ccc(Cl)cc2)CC1 (centres undefined) [Atovaquone]                   0.9

Fill in: z-score of subpopulation abundance of COc1cc(C(C)=O)ccc1OCCCN1CCC(c2noc3cc(F)ccc23)CC1 [Iloperidone] is ___
0.05

Fill in: z-score of subpopulation abundance of C[C@@H](c1ncncc1F)[C@](O)(Cn1cncn1)c1ccc(F)cc1F [Voriconazole] is ___
10.2

Fill in: z-score of subpopulation abundance of COc1ccccc1OCC(O)CN1CCN(CC(=O)Nc2c(C)cccc2C)CC1 (centres undefined) [Ranolazine] is ___
0.37

====

Test system: Saccharomyces cerevisiae BY4741 SeMeCo community
Method notes: z-score of subpopulation abundance vs DMSO median, subpopulation auxotrophic for HUM; higher = larger share of this subpopulation than in DMSO controls
Assay setup: 10 µM; 24 h; SM minimal medium; subpopulation (auxotrophy): HUM
Counter-ions that a name gives are not always drawn.
Experimental endpoint: z-score of subpopulation abundance
API note: the answer field is a bare number with no unit suffix.

Molecule	Experimental endpoint	Quantitative readout
C[C@]12CC[C@@H]3c4ccc(O)cc4CC[C@H]3[C@@H]1CCC2=O	z-score of subpopulation abundance	-0.46
N[C@@H]1CONC1=O	z-score of subpopulation abundance	0.3
NC[C@H]1O[C@H](O[C@H]2[C@H](O)[C@@H](O[C@H]3O[C@H](CO)[C@@H](O)[C@H](N)[C@H]3O)[C@H](N)C[C@@H]2N)[C@H](O)[C@@H](O)[C@@H]1O [Kanamycin sulfate]	z-score of subpopulation abundance	0.21

Return z-score of subpopulation abundance measured with Saccharomyces cerevisiae BY4741 SeMeCo community given this molecule: COc1cc(C(C)=O)ccc1OCCCN1CCC(c2noc3cc(F)ccc23)CC1
-0.98

Return z-score of subpopulation abundance measured with Saccharomyces cerevisiae BY4741 SeMeCo community given this molecule: CC(C(=O)O)c1ccc2c(c1)[nH]c1ccc(Cl)cc12 (stereo not given)
-2.82

Return z-score of subpopulation abundance measured with Saccharomyces cerevisiae BY4741 SeMeCo community given this molecule: CC[N+](C)(C)c1cccc(O)c1 [Edrophonium chloride]
0.76

Return z-score of subpopulation abundance measured with Saccharomyces cerevisiae BY4741 SeMeCo community given this molecule: Nc1ccc(S(N)(=O)=O)cc1 [Sulfanilamide]
0.6

Return z-score of subpopulation abundance measured with Saccharomyces cerevisiae BY4741 SeMeCo community given this molecule: C[C@H]1[C@H](NC(=O)/C(=N\OC(C)(C)C(=O)O)c2csc(N)n2)C(=O)N1S(=O)(=O)O
-0.1

Return z-score of subpopulation abundance measured with Saccharomyces cerevisiae BY4741 SeMeCo community given this molecule: CO/N=C(\C(=O)N[C@@H]1C(=O)N2C(C(=O)O)=C(CSc3nc(=O)c(O)nn3C)CS[C@H]12)c1csc(N)n1 [Ceftriaxone Sodium Trihydrate]
-2.14

Return z-score of subpopulation abundance measured with Saccharomyces cerevisiae BY4741 SeMeCo community given this molecule: CO[C@H]1C[C@@H]2CC[C@@H](C)[C@@](O)(O2)C(=O)C(=O)N2CCCC[C@H]2C(=O)O[C@H]([C@H](C)C[C@@H]2CC[C@@H](OP(C)(C)=O)[C@H](OC)C2)CC(=O)[C@H](C)/C=C(\C)[C@@H](O)[C@@H](OC)C(=O)[C@H](C)C[C@H](C)/C=C/C=C/C=C/1C
29.1

Return z-score of subpopulation abundance measured with Saccharomyces cerevisiae BY4741 SeMeCo community given this molecule: COc1ccnc(C[S+]([O-])c2nc3cc(OC(F)F)ccc3[nH]2)c1OC (stereo not given)
-0.2

Return z-score of subpopulation abundance measured with Saccharomyces cerevisiae BY4741 SeMeCo community given this molecule: CCCCNC(=O)NS(=O)(=O)c1ccc(C)cc1 [Tolbutamide]
-0.36

Return z-score of subpopulation abundance measured with Saccharomyces cerevisiae BY4741 SeMeCo community given this molecule: O=C1CCc2ccc(OCCCCN3CCN(c4cccc(Cl)c4Cl)CC3)cc2N1
0.36

Return z-score of subpopulation abundance measured with Saccharomyces cerevisiae BY4741 SeMeCo community given this molecule: C/C(=C\C(=O)OCCCCCCCCC(=O)O)C[C@@H]1OC[C@H](C[C@@H]2O[C@H]2[C@@H](C)[C@H](C)O)[C@@H](O)[C@H]1O
1.29

Return z-score of subpopulation abundance measured with Saccharomyces cerevisiae BY4741 SeMeCo community given this molecule: C[C@]12CC[C@@H]3c4ccc(OC(=O)c5ccccc5)cc4CC[C@H]3[C@@H]1CC[C@@H]2O [Estradiol Benzoate]
0.38

====

System: Saccharomyces cerevisiae BY4741 SeMeCo community
Method notes: mean cell size (pixel area) (pixels); higher = larger cells
Assay setup: 10 µM; 24 h; SM minimal medium
Where a name gives a salt, the structure may show the parent alone.
Experimental endpoint: mean cell size
API note: the answer field is a bare number with no unit suffix.

> print(dat)
                                   compound  quantitative.readout
1  C[C@@H](c1nc(-c2ccc(C#N)cc2)cs1)[C@](O)(Cn1cncn1)c1cc(F)ccc1F                  11.9
2  CNCC[C@@H](Oc1ccccc1C)c1ccccc1 [Atomoxetine HCl]                  12.4
3  CCn1cc(C(=O)O)c(=O)c2cc(F)c(N3CCNCC3)nc21 [Enoxacin Sesquihydrate]                  12.2

// next item, mean cell size requested
Return mean cell size measured with Saccharomyces cerevisiae BY4741 SeMeCo community given this compound: CO/N=C(\C(=O)N[C@@H]1C(=O)N2C(C(=O)O)=C(COC(N)=O)CS[C@H]12)c1ccco1 [Cefuroxime sodium]
12.5

====

System: Saccharomyces cerevisiae BY4741 SeMeCo community
Method notes: z-score of subpopulation abundance vs DMSO median, subpopulation auxotrophic for HM; higher = larger share of this subpopulation than in DMSO controls
Assay setup: 10 µM; 24 h; SM minimal medium; subpopulation (auxotrophy): HM
Is z-score of subpopulation abundance at least 0.01? Then 1. If not, 0.

Compound	Tgt	Label class
O=c1ccn(C2CC(O)C(CO)O2)c(=O)[nH]1 (stereo not drawn)	Saccharomyces cerevisiae BY4741 SeMeCo community	1
N[C@H]1CONC1=O	Saccharomyces cerevisiae BY4741 SeMeCo community	1
Cc1ccc(-c2cc(C(F)(F)F)nn2-c2ccc(S(N)(=O)=O)cc2)cc1	Saccharomyces cerevisiae BY4741 SeMeCo community	0
CC1(C)S[C@@H]2[C@H](NC(=O)C(C(=O)O)c3ccccc3)C(=O)N2[C@H]1C(=O)O (stereo partly drawn) [Carbenicillin disodium]	Saccharomyces cerevisiae BY4741 SeMeCo community	1
CCOC(=O)C1=C(COCCN)NC(C)=C(C(=O)OC)C1c1ccccc1Cl (stereo not drawn) [Amlodipine Besylate]	Saccharomyces cerevisiae BY4741 SeMeCo community	1
CC1(C)S[C@@H]2[C@H](NC(=O)[C@H](N)c3ccccc3)C(=O)N2[C@H]1C(=O)OCOC(=O)[C@@H]1N2C(=O)C[C@H]2S(=O)(=O)C1(C)C [Sultamicillin]	Saccharomyces cerevisiae BY4741 SeMeCo community	1

Now consider the entry below.
Dear colleague, could you confirm whether CC(C)Cc1ccc(C(C)C(=O)O)cc1 (stereo not drawn) [Ibuprofen] has z-score of subpopulation abundance at or above 0.01?
0

====

System: Saccharomyces cerevisiae BY4741 SeMeCo community
Method notes: z-score of subpopulation abundance vs DMSO median, subpopulation auxotrophic for HLUM; higher = larger share of this subpopulation than in DMSO controls
Assay setup: 10 µM; 24 h; SM minimal medium; subpopulation (auxotrophy): HLUM
# Lookup of reported z-score of subpopulation abundance keyed by entry

> print(dat)
                                   compound                                       tgt               experimental.endpoint  result
1  CCN(CC)CCNC(=O)c1cc(Cl)c(N)cc1OC [Metoclopramide]  Saccharomyces cerevisiae BY4741 SeMeCo community  z-score of subpopulation abundance    1.06

Fill in: z-score of subpopulation abundance of CC1=C(C(=O)O)N2C(=O)[C@@H](NC(=O)[C@H](N)c3ccccc3)[C@H]2SC1 is ___
-0.42

====

# Lookup of reported z-score of subpopulation abundance keyed by entry
Test system: Saccharomyces cerevisiae BY4741 SeMeCo community
Method notes: z-score of subpopulation abundance vs DMSO median, subpopulation auxotrophic for M; higher = larger share of this subpopulation than in DMSO controls
Assay setup: 10 µM; 24 h; SM minimal medium; subpopulation (auxotrophy): M
Where a name gives a salt, the structure may show the parent alone.
API note: the answer field is a bare number with no unit suffix.

Compound	z-score of subpopulation abundance
CCCCCCCN(CC)CCCC(O)c1ccc(NS(C)(=O)=O)cc1 (stereo not drawn) [Ibutilide Fumarate]	-0.42
CN(C)CCc1c[nH]c2ccc(CS(=O)(=O)N3CCCC3)cc12 [Almotriptan Malate]	-0.37
Cc1ccc(O)c([C@H](CCN(C(C)C)C(C)C)c2ccccc2)c1 [Tolterodine tartrate]	0.22

Fill in: z-score of subpopulation abundance of CC(C)(O/N=C(\C(=O)N[C@@H]1C(=O)N2C(C(=O)[O-])=C(C[n+]3ccccc3)CS[C@H]12)c1csc(N)n1)C(=O)O [Ceftazidime] is ___
-0.44

Fill in: z-score of subpopulation abundance of CCOc1cc(N)c(Cl)cc1C(=O)NCC1CN(Cc2ccc(F)cc2)CCO1 (stereo not drawn) [Mosapride Citrate] is ___
0.17

Fill in: z-score of subpopulation abundance of CC1=C(C(=O)O)N2C(=O)[C@@H](NC(=O)[C@H](N)c3ccc(O)cc3)[C@H]2SC1 [Cefadroxil hydrate] is ___
-0.99

Fill in: z-score of subpopulation abundance of C=C[C@]1(C)C[C@@H](OC(=O)CS[C@@H]2C[C@H]3CC[C@@H](C2)N3C)[C@]2(C)[C@H](C)CC[C@]3(CCC(=O)[C@H]32)[C@@H](C)[C@@H]1O [Retapamulin] is ___
-0.9

Fill in: z-score of subpopulation abundance of COC(=O)C1=C(C)NC(C)=C(C(=O)OCC(C)C)C1c1ccccc1[N+](=O)[O-] (stereo not drawn) [Nisoldipine] is ___
0.83
